Data credit: patent US8501746B2

Measured melting point accompanies every entry in the list below.
endpoint.label: melting point

[[record]]
smiles_repr = "Cc1cc(-n2ccc(OCc3ccccc3)cc2=O)sc1C(=O)NCc1cccc(F)c1"
endpoint_label = "melting point"
result = "140 to 141 °C"

[[record]]
smiles_repr = "Cc1nc(-n2ccc(OCC3CC3)cc2=O)sc1C(=O)NCc1ccccc1"
endpoint_label = "melting point"
result = "218 to 220 °C"

[[record]]
smiles_repr = "Cc1nc(-n2ccc(-c3ccccc3)cc2=O)sc1C(=O)NCc1ccccc1"
endpoint_label = "melting point"
result = "235 to 237 °C"

[[record]]
smiles_repr = "Cc1nc(-n2cc(Cl)ccc2=O)sc1C(=O)NCc1ccccc1"
endpoint_label = "melting point"
result = "173 to 174 °C"

[[record]]
smiles_repr = "Cc1nc(-n2ccc(CCc3ccccc3)cc2=O)sc1C(=O)NCc1ccccc1"
endpoint_label = "melting point"
result = "149 to 150 °C"

[[record]]
smiles_repr = "CCOC(=O)c1sc(-n2ccc(OCc3ccc(F)cc3)cc2=O)nc1C"
endpoint_label = "melting point"
result = "214 to 217 °C"

[[record]]
smiles_repr = "COc1ccn(-c2nc(C)c(C(=O)NCc3cccnc3)s2)c(=O)c1"
endpoint_label = "melting point"
result = "200 to 202 °C"

[[record]]
smiles_repr = "Cc1nc(-n2ccc(OCc3ccccc3)cc2=O)n(C)c1C(=O)NCc1ccccc1"
endpoint_label = "melting point"
result = "232 to 233 °C"

[[record]]
smiles_repr = "Cc1nc(-n2ccc(OCc3cccnc3)cc2=O)sc1C(=O)NCc1ccccc1"
endpoint_label = "melting point"
result = "214 to 216 °C"

[[record]]
smiles_repr = "Cc1cc(-n2ccc(OCCCO)cc2=O)sc1C(=O)NCc1cccc(F)c1"
endpoint_label = "melting point"
result = "135 to 137 °C"

[[record]]
smiles_repr = "Cc1nc(-n2ccc3c(OCc4ccccc4)cccc3c2=O)sc1C(=O)NCc1ccccc1"
endpoint_label = "melting point"
result = "225 to 226 °C"

[[record]]
smiles_repr = "Cc1nc(-n2ccc(OCC3CCCC3)cc2=O)sc1C(=O)NCc1ccccc1"
endpoint_label = "melting point"
result = "196 to 198 °C"

[[record]]
smiles_repr = "Cc1cc(-n2ccc(O)cc2=O)sc1C(=O)NCc1ccc(F)cc1"
endpoint_label = "melting point"
result = "95 °C (dec.)"

[[record]]
smiles_repr = "Cc1nc(-n2cc(C(=O)Nc3ccccc3)ccc2=O)sc1C(=O)NCc1ccccc1"
endpoint_label = "melting point"
result = "223 to 225 °C"

[[record]]
smiles_repr = "CCOC(=O)c1sc(-n2ccc(O)cc2=O)nc1C"
endpoint_label = "melting point"
result = "270 to 273 °C"

[[record]]
smiles_repr = "Cc1nc(-n2ccc(OCc3ccccc3)cc2=O)sc1C(=O)NCc1ccc(F)c(F)c1"
endpoint_label = "melting point"
result = "225 to 227 °C"

[[record]]
smiles_repr = "Cc1nc(-n2ccc(OCc3ccc(C(F)(F)F)o3)cc2=O)sc1C(=O)O"
endpoint_label = "melting point"
result = "261 to 263 °C"

[[record]]
smiles_repr = "Cc1nc(-n2ccc(C(F)(F)F)cc2=O)sc1C(=O)NCc1ccccc1"
endpoint_label = "melting point"
result = "197 to 198 °C"

[[record]]
smiles_repr = "CCNC(=O)c1sc(-n2ccc(O)cc2=O)cc1C"
endpoint_label = "melting point"
result = "183 to 184 °C"

[[record]]
smiles_repr = "Cc1nc(-n2ccc(C(=O)Nc3ccccc3)cc2=O)sc1C(=O)NCc1ccccc1"
endpoint_label = "melting point"
result = "243 to 245 °C"

[[record]]
smiles_repr = "Cc1nc(-n2ccc(OCc3ccccn3)cc2=O)sc1C(=O)NCc1ccccc1"
endpoint_label = "melting point"
result = "202 to 205 °C"

[[record]]
smiles_repr = "Cc1nc(-n2ccc(-c3ccc(Cl)cc3)cc2=O)sc1C(=O)NCc1ccccc1"
endpoint_label = "melting point"
result = "265 to 267 °C"

[[record]]
smiles_repr = "CCOC(=O)c1sc(-n2ccc(OCc3ccc(C(F)(F)F)o3)cc2=O)nc1C"
endpoint_label = "melting point"
result = "196 to 198 °C"

[[record]]
smiles_repr = "Cc1nc(-n2ccc(OCCC3CC3)cc2=O)sc1C(=O)NCc1ccccc1"
endpoint_label = "melting point"
result = "172 to 174 °C"

[[record]]
smiles_repr = "CCOC(=O)c1sc(-n2ccc(OCC3CC3)cc2=O)nc1C"
endpoint_label = "melting point"
result = "180 to 183 °C"

[[record]]
smiles_repr = "Cc1nc(-n2ccc(O)cc2=O)sc1C(=O)NCCC1CC1"
endpoint_label = "melting point"
result = "234 to 236 °C"

[[record]]
smiles_repr = "Cc1nc(-n2ccc(OCc3ccccc3)cc2=O)sc1C(=O)NCc1ccccc1"
endpoint_label = "melting point"
result = "219 to 220 °C"

[[record]]
smiles_repr = "Cc1cc(-n2ccc(O)cc2=O)sc1C(=O)NCc1cccnc1"
endpoint_label = "melting point"
result = "110 °C (dec.)"

[[record]]
smiles_repr = "O=C(NCc1ccccc1)c1csc(-n2ccc(OCc3ccccc3)cc2=O)c1"
endpoint_label = "melting point"
result = "162 to 163 °C"

[[record]]
smiles_repr = "Cc1cc(-n2ccc(O)cc2=O)sc1C(=O)NCc1cccc(F)c1"
endpoint_label = "melting point"
result = "140 to 142 °C"

[[record]]
smiles_repr = "Cc1nc(-n2ccc(O)cc2=O)sc1C(=O)NCc1cccc(F)c1"
endpoint_label = "melting point"
result = "250 to 252 °C"

[[record]]
smiles_repr = "Cc1nc(-n2ccc(Oc3ccccc3)cc2=O)sc1C(=O)NCc1ccccc1"
endpoint_label = "melting point"
result = "67 to 70 °C"

[[record]]
smiles_repr = "Cc1cc(-n2ccc(OCc3ccc(OC(F)F)cc3)cc2=O)sc1C(=O)NCc1ccccc1"
endpoint_label = "melting point"
result = "178 to 180 °C"

[[record]]
smiles_repr = "Cc1nc(-n2c(=O)ccc3cc(OCc4ccccc4)ccc32)sc1C(=O)NCc1ccccc1"
endpoint_label = "melting point"
result = "213 to 216 °C"

[[record]]
smiles_repr = "Cc1cc(-n2ccc(OCC3CC3)cc2=O)sc1C(=O)NCc1ccccc1"
endpoint_label = "melting point"
result = "175 to 177 °C"

[[record]]
smiles_repr = "Cc1nc(-n2ccc(C(F)(F)F)cc2=O)sc1C(=O)NCc1cccnc1"
endpoint_label = "melting point"
result = "172 to 173 °C"


* * *

- experimental.target: stearoyl-CoA desaturase (SCD1) (Mus musculus, UniProt P13516)
- Sequence (P13516 1-355): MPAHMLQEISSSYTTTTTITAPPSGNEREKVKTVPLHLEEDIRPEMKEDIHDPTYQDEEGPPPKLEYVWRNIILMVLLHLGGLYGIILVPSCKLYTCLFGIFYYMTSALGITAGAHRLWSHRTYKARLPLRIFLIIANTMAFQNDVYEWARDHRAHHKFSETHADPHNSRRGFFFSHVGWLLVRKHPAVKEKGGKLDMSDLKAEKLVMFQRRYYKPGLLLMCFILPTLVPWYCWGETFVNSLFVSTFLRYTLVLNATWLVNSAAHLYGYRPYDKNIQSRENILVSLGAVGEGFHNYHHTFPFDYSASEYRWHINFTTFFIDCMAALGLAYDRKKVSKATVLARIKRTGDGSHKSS
endpoint.label: IC50 (nM)

[[record]]
molecule = "Cc1nc(-n2cccc(C(F)(F)F)c2=O)sc1C(=O)NCc1ccccc1 [Example 3.5]"
value_units = "nM"
measured_number = 150

[[record]]
molecule = "Cc1cc(-n2ccc(OCc3ccccc3)cc2=O)oc1C(=O)NCc1ccccc1 [Example 3.19]"
value_units = "nM"
measured_number = 5700

[[record]]
molecule = "Cc1nc(-n2ccccc2=O)sc1C(=O)NCc1ccc(F)cc1 [Example 3.11]"
value_units = "nM"
measured_number = 230

[[record]]
molecule = "Cc1nc(-n2ccc(OCC3CC3)cc2=O)sc1C(=O)NCc1ccccc1 [Example 1.1]"
value_units = "nM"
measured_number = 400

[[record]]
molecule = "Cc1nc(-n2ccc(OCc3ccccc3)cc2=O)[nH]c1C(=O)NCc1ccccc1 [Example 1.7]"
value_units = "nM"
measured_number = 220

[[record]]
molecule = "Cc1nc(-n2ccc(OCc3c(C)noc3C)cc2=O)sc1C(=O)NCc1ccccc1 [Example 21.13]"
value_units = "nM"
measured_number = 180

[[record]]
molecule = "Cc1nc(-n2ccc3c(O)cccc3c2=O)sc1C(=O)NCc1ccccc1 [Example 7.1]"
value_units = "nM"
measured_number = 30

[[record]]
molecule = "Cc1nc(-n2ccc(OCc3ccccc3)cc2=O)sc1C(=O)NCc1ccc(Cl)nc1 [Example 22.19]"
value_units = "nM"
measured_number = 50


* * *

Measured melting point accompanies every entry in the list below.
endpoint.label: melting point

[[record]]
smiles_repr = "Cc1nc(-n2cc(OCc3ccccc3)ccc2=O)sc1C(=O)NCc1ccccc1"
endpoint_label = "melting point"
result = "166 to 167 °C"

[[record]]
smiles_repr = "Cc1cc(-n2ccc(OCc3ccccc3)cc2=O)sc1C(=O)NCc1ccc(F)cc1"
endpoint_label = "melting point"
result = "175 to 177 °C"

[[record]]
smiles_repr = "Cc1nc(-n2ccc(OCc3ccc(C(F)(F)F)o3)cc2=O)sc1C(=O)NCc1cccnc1"
endpoint_label = "melting point"
result = "240 to 242 °C"

[[record]]
smiles_repr = "Cc1cc(-n2ccc(OCc3ccccc3)cc2=O)oc1C(=O)NCc1ccccc1"
endpoint_label = "melting point"
result = "191 to 192 °C"

[[record]]
smiles_repr = "Cc1nc(-n2ccc(OCc3ccc(F)cc3)cc2=O)sc1C(=O)O"
endpoint_label = "melting point"
result = "> 300 °C"

[[record]]
smiles_repr = "Cc1cc(-n2ccc(O)cc2=O)sc1C(=O)NCc1ccccc1"
endpoint_label = "melting point"
result = "98 °C (dec.)"

[[record]]
smiles_repr = "Cc1nc(-n2cc(C(F)(F)F)ccc2=O)sc1C(=O)NCc1ccccc1"
endpoint_label = "melting point"
result = "148 to 149 °C"

[[record]]
smiles_repr = "CCOC(=O)c1[nH]c(-n2ccc(OCc3ccccc3)cc2=O)nc1C"
endpoint_label = "melting point"
result = "135 to 136 °C"

[[record]]
smiles_repr = "Cc1nc(-n2ccnc(C)c2=O)sc1C(=O)NCc1ccccc1"
endpoint_label = "melting point"
result = "186 to 187 °C"

